Tested on: TNFα
Assay: cells
Type: cell-based, human
Settings: Homo sapiens, Monocyte, LPS-stimulated human monocytes, TNFα content; read-out: EC50 TNF
Outcome Measure: EC50 (nM)
Value expressed in nM; do not type the unit.

[ask] Give EC50 for the following compound: CC(C)Nc1cc(-c2ccc3cc(C#N)cnn23)ncc1C(=O)NC1COC1 [Example 7]
[reply] 442

[ask] Name the recorded EC50 of the compound listed here: CNC(=O)O[C@@H]1CCC[C@H](Nc2cc(-c3ccc4cc(C#N)cnn34)ncc2C(=O)NC[C@@H](F)C(C)(C)O)C1 [Example 748]
[reply] 38

[ask] Name the recorded EC50 of the compound listed here: CC(C)Nc1cc(-c2ccc3cc(C#N)cnn23)ncc1C(=O)NC1CCS(=O)(=O)CC1 [Example 139]
[reply] 254

[ask] Give me measured EC50, please, for this compound: CC(C)(O)[C@H](F)CNC(=O)c1cnc(-c2ccc3cc(C#N)cnn23)cc1Nc1cccnn1 [Example 588]
[reply] 412

[ask] Please give measured EC50 of the following entry: COC(=O)NC1(c2ccc(Nc3cc(-c4ccc5cc(C#N)cnn45)ncc3C(=O)NC[C@@H](F)C(C)(C)O)cc2)CC1 [Example 212]
[reply] 13

[ask] Respond only with EC50 recorded for CCn1cc(Nc2cc(-c3ccc4cc(C#N)cnn34)ncc2C(=O)NC[C@@H](F)C(C)(C)O)cn1 [Example 56]
[reply] 13

[ask] Give reported EC50 value for CC(C)Nc1cc(-c2ccc3cc(C#N)cnn23)ncc1C(=O)NC1CCS(=O)(=O)C1 (centres unmarked) [Example 123]
[reply] 421

[ask] Read the entry CC(C)(O)[C@H](F)CNC(=O)c1cnc(-c2ccc3cc(C#N)cnn23)cc1Nc1cnc(-c2cnco2)nc1 [Example 641] and write its reported EC50.
[reply] 21

[ask] Give me measured EC50, please, for this compound: CC(C)(O)[C@H](F)CNC(=O)c1cnc(-c2ccc3cc(C#N)cnn23)cc1Nc1ccc(-n2ccnc2)cc1 [Example 767]
[reply] 35

[ask] Give the reported value of EC50 for this record: CC(C)(O)[C@H](F)CNC(=O)c1cnc(-c2ccc3cc(C#N)cnn23)cc1N[C@@H]1C[C@@H]2CC[C@H]1O2 [Example 93]
[reply] 78

[ask] Return the recorded EC50 value; entry: CNC(=O)c1cnc(-c2ccc3cc(C#N)cnn23)cc1NC12CCC(O)(CC1)CC2 [Example 361]
[reply] 50

[ask] Give recorded EC50. CNC(=O)C1CCC(NC(=O)c2cnc(-c3ccc4cc(C#N)cnn34)cc2NC(C)C)CC1 (centres unmarked) [Example 22]
[reply] 87

[ask] Quickly give me recorded EC50 for CC(C)(O)[C@H](F)CNC(=O)c1cnc(-c2ccc3cc(C#N)cnn23)cc1NCc1cccnc1 [Example 170]
[reply] 217

[ask] Using the record for CC(C)(O)[C@H](F)CNC(=O)c1cnc(-c2ccc3cc(C#N)cnn23)cc1Nc1nc(Cc2ccccc2)ns1 [Example 335] , state its measured EC50.
[reply] 100

[ask] Report EC50 for COC(=O)N1CC[C@H](n2cc(Nc3cc(-c4ccc5cc(C#N)cnn45)ncc3C(=O)NC[C@@H](F)C(C)(C)O)cn2)C1 [Example 224]
[reply] 75

[ask] Quote EC50 reported for CC(C)(O)[C@H](F)CNC(=O)c1cnc(-c2ccc3cc(C#N)cnn23)cc1NC1CCN(C2COC2)CC1 [Example 83] please.
[reply] 221

[ask] Consider the compound N#CCCNC(=O)c1cnc(-c2ccc3cc(C#N)cnn23)cc1NC12CCC(O)(CC1)CC2 [Example 352] . State its measured EC50.
[reply] 76

[ask] Please give measured EC50 of the following entry: COC(=O)NC1CCC(NC(=O)c2cnc(-c3ccc4cc(C#N)cnn34)cc2N[C@H]2CCCC(O)C2)CC1 (some centres unmarked) [Example 387]
[reply] 112

[ask] Consider the compound CC(C)(O)[C@H](F)CNC(=O)c1cnc(-c2ccc3cc(C#N)cnn23)cc1Nc1cccc(OC(F)F)c1 [Example 608] and give its recorded EC50.
[reply] 123

[ask] Give the reported value of EC50 for this record: CC(CCS(C)(=O)=O)Nc1cc(-c2ccc3cc(C#N)cnn23)ncc1C(=O)NC[C@@H](F)C(C)(C)O (some centres unmarked) [Example 440]
[reply] 715

[ask] In one line, give reported EC50 of the entry CC(=O)N1CC(Nc2cc(-c3ccc4cc(C#N)cnn34)ncc2C(=O)NC[C@@H](F)C(C)(C)O)C1 [Example 449] .
[reply] 361

[ask] For the compound CC(C)Nc1cc(-c2ccc3cc(C#N)cnn23)ncc1C(=O)N[C@H]1CCOC1 [Example 36] , give its measured EC50 value.
[reply] 221

[ask] Annotate the compound CC(C)(O)[C@H](F)CNC(=O)c1cnc(-c2ccc3cc(C#N)cnn23)cc1NC1C2CC1CN(S(C)(=O)=O)C2 (some centres unmarked) [Example 30] with its measured EC50.
[reply] 732

[ask] Give recorded EC50. CC(C)Nc1cc(-c2ccc3cc(C#N)cnn23)ncc1C(=O)NC1CC2(COC2)C1 [Example 96]
[reply] 79

[ask] Identify EC50 associated with the compound CC(C)(O)[C@H](F)CNC(=O)c1cnc(-c2ccc3cc(C#N)cnn23)cc1NC1Cc2ccncc2C1 (single isomer, unassigned) [Example 676]
[reply] 81

[ask] Fill in reported EC50 for this entry: COC1CN(C(=O)CNC(=O)c2cnc(-c3ccc4cc(C#N)cnn34)cc2NC23CCC(O)(CC2)CC3)C1 [Example 791]
[reply] 45

[ask] Supply EC50 value. Item: CC(C)(O)[C@H](F)CNC(=O)c1cnc(-c2ccc3cc(C#N)cnn23)cc1Nc1ccc(-c2cocn2)cc1 [Example 628]
[reply] 26
